# assayText: chemical genetic growth profiling, strain panel (AID 1159580);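 also: tested at 20 µM; growth read once vehicle control cultures reached saturation at 30 °C; 1 = growth at the plate median or of vehicle wells; lower values mean less growth of the strain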
# details: S. cerevisiae deletion strains, growth OD, locus YOR119C, strain RIO1, hits give low values
In all, about 5,500 compounds went through this assay and about 2,000 (36%) were called active. Not shown: some 18% with an inconclusive outcome. The list shows a part of the results.
Property: normalized growth; scope: individual compounds

{"compound": "S=C(NCc1cccs1)Nc1cc(Cl)cc(Cl)c1", "recordedEndpoint": "normalized growth", "reported": "0.936 (inactive)"}
{"compound": "O=[N+]([O-])c1cc(C(F)(F)F)cc([N+](=O)[O-])c1Oc1ccc(Cl)c(Cl)c1", "recordedEndpoint": "normalized growth", "reported": "0.095 (active)"}
{"compound": "FC(F)(F)c1c2c(nc3cc(-c4ccco4)nn13)CCC2", "recordedEndpoint": "normalized growth", "reported": "0.921 (inactive)"}
{"compound": "Cn1cc(Br)c(-c2cccc(NS(=O)(=O)c3ccc(Cl)cc3)c2)n1", "recordedEndpoint": "normalized growth", "reported": "1.06 (inactive)"}
{"compound": "Cc1cc(Oc2c([N+](=O)[O-])cc(C(F)(F)F)cc2[N+](=O)[O-])c2c(Cl)ccc(C)c2n1", "recordedEndpoint": "normalized growth", "reported": "0.479 (active)"}

According to the records, this compound "Cc1cc(C)c2cc(C(=O)NCCNc3ccc(C(F)(F)F)cn3)[nH]c2c1" displays normalized growth of 0.341 (active)

According to the records, this compound "COC(=O)c1cc(I)c(OC(C)=O)c(I)c1" displays normalized growth of 0.991 (inactive)

According to the records, this compound "COc1ccc(Oc2ccc([N+](=O)[O-])cc2C(=O)O/N=C(/N)c2ccc(C(F)(F)F)cc2)cc1" displays normalized growth of 1.06 (inactive)

According to the records, this compound "COC(=O)c1cc([N+](=O)[O-])ccc1S(=O)(=O)Cc1ccc(Cl)cc1" displays normalized growth of 0.973 (inactive)

According to the records, this compound CC1SC(c2cccnc2)N(c2ccc(F)cc2F)C1=O (stereo not given) displays normalized growth of 0.833 (inactive)

* * *

# assayText: chemical genetic growth profiling, strain panel (AID 1159580)
# details: S. cerevisiae deletion strains, growth OD, locus YNL322C, strain KRE1 (second series), hits give low values
Hit rate of the full screen: of about 5,500 compounds, about 2,000 (36%) were called active. Roughly 18% stayed inconclusive and do not appear here. Some of the results follow.
recordedEndpoint: normalized growth
Give a plain numeric answer without units written out.

Solved entries (count: 6):
{"compound": "O=C(O)[C@H]1/C(=C/CO)O[C@@H]2CC(=O)N21", "recordedEndpoint": "normalized growth", "reported": 0.973}
{"compound": "COc1ccc(CC(=O)c2ccc(O)cc2O)cc1", "recordedEndpoint": "normalized growth", "reported": 0.971}
{"compound": "O=C(CCc1ccc(O)cc1)c1c(O)cc(O)cc1O", "recordedEndpoint": "normalized growth", "reported": 0.978}
{"compound": "Cc1cc2nc3c(=O)[nH]c(=O)nc-3n(CC(O)C(O)C(O)CO)c2cc1C (configuration not stated)", "recordedEndpoint": "normalized growth", "reported": 0.996}
{"compound": "O=C1C=CC(=O)c2c(O)c(Cl)c(Cl)c(O)c21", "recordedEndpoint": "normalized growth", "reported": 0.0721}
{"compound": "COc1cc(O)ccc1C(C)=O", "recordedEndpoint": "normalized growth", "reported": 1.02}

Then this compound:
According to the records, this compound "O=c1c(O)cccc2cc(O)c(O)c(O)c12" displays normalized growth of 0.237

* * *

Property: normalized growth; scope: individual compounds
# assayText: chemical genetic growth profiling, strain panel (AID 1159580)
# details: S. cerevisiae deletion strains, growth OD, locus YOR184W, strain ser1, hits give low values
The campaign covered roughly 5,500 compounds. About 2,000 (36%) were called active. Roughly 18% stayed inconclusive and do not appear here. Some of the results follow.

{"compound": "CCCCCC/C=C\\CCCCCCCc1cccc(O)c1C(=O)O", "reported": "0.999 (inactive)"}
{"compound": "O=C1NS(=O)(=O)c2ccccc21", "reported": "0.987 (inactive)"}
{"compound": "C[C@]12CC[C@@H](O)C[C@H]1CCc1ccccc12", "reported": "0.978 (inactive)"}

According to the records, this compound "CC(C)N=C(N)N=C(N)Nc1ccc(Cl)cc1" displays normalized growth of 1.01 (inactive)

According to the records, this compound "O=c1c(O)c(-c2ccccc2)oc2ccccc12" displays normalized growth of 0.988 (inactive)

According to the records, this compound "O=C1C=CC(=O)c2c(O)cccc21" displays normalized growth of 0.984 (inactive)

According to the records, this compound CN1CCCCC1c1ccc(-c2cccnc2)nc1 (centres undefined) displays normalized growth of 1.02 (inactive)

* * *

# assayText: chemical genetic growth profiling, strain panel (AID 1159580);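 also: tested at 20 µM; growth read once vehicle control cultures reached saturation at 30 °C; 1 = growth at the plate median or of vehicle wells; lower values mean less growth of the strain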
# details: S. cerevisiae deletion strains, growth OD, locus YLR342W, strain FKS1 (second series)
The whole screen tested about 5,500 compounds, of which about 2,000 (36%) were called active. Roughly 18% stayed inconclusive and do not appear here. Rule as the data show it: active = normalized growth mostly below about 0.91 (no sharp cut-off); inconclusive = no clear call, values can overlap the other calls; inactive = mostly above about 0.92. The list shows a part of the results.
Pick one: active, inactive

{"compound": "COc1cc(Cc2cnc(N)nc2N)cc(OC)c1OC", "group": "inactive"}

Lab log entry: "CNC(=O)Oc1ccccc1OC(C)C" — outcome as called in the assay?
inactive

Lab log entry: "O=C(/C=C/c1ccccc1)c1ccc(O[C@@H]2O[C@H](CO)[C@@H](O)[C@H](O)[C@H]2O)cc1O" — outcome as called in the assay?
active

Lab log entry: "CN(C)CCC[C@@]1(c2ccc(F)cc2)OCc2cc(C#N)ccc21" — outcome as called in the assay?
inactive

Lab log entry: "CC(=O)NS(=O)(=O)c1ccc(N)cc1" — outcome as called in the assay?
inactive

Lab log entry: ClC1C(Cl)C(Cl)C(Cl)C(Cl)C1Cl (configuration not stated) — outcome as called in the assay?
inactive

Lab log entry: CC(=O)O[C@@H]1C2CC[C@@H]3C1(C[C@@H](O)[C@@]1(O)[C@@H](C[C@H](O)C1(C)C)[C@]3(C)O)C[C@@]2(C)O (some centres not stated) — outcome as called in the assay?
inactive

Lab log entry: "CC(C)N1C(=O)c2ccccc2NS1(=O)=O" — outcome as called in the assay?
inactive

Lab log entry: "O=C(O)c1cccnc1C(=O)O" — outcome as called in the assay?
inactive

Lab log entry: CC(=O)OC1CCC2(O)CC1(C)CCC1C2CC1(C)C (configuration not stated) — outcome as called in the assay?
inactive

Lab log entry: "O=C1NS(=O)(=O)c2ccccc21" — outcome as called in the assay?
inactive

Lab log entry: "O=C(/C=C/c1ccccc1)c1c(O)cc(O)cc1O" — outcome as called in the assay?
inactive

* * *

# assayText: chemical genetic growth profiling, strain panel (AID 1159580);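 also: tested at 20 µM; growth read once vehicle control cultures reached saturation at 30 °C; 1 = growth at the plate median or of vehicle wells; lower values mean less growth of the strain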
# details: S. cerevisiae deletion strains, growth OD, locus YDR334W, strain swr1
Screen size: about 5,500 compounds; about 2,000 (36%) were called active. Another 18% or so got no clear call; they are omitted. Rule as the data show it: active = normalized growth mostly below about 0.91 (no sharp cut-off); inconclusive = no clear call, values can overlap the other calls; inactive = mostly above about 0.92. The list shows a part of the results.
Pick one: True (active), False (inactive)

{"molecule": "Cc1cc(O)c2c(c1)C(=O)c1cccc(O)c1C2=O", "group": "False"}
{"molecule": "CC(=CC1CCC(C)C2CCC(C)=C12)C(=O)O (configuration not stated)", "group": "False"}

Lab log entry: CN1CCCCC1c1ccc(-c2cccnc2)nc1 (configuration not stated) — outcome as called in the assay?
False

Lab log entry: NC(Cc1ccc(Cl)cc1)C(=O)O (configuration not stated) — outcome as called in the assay?
False

Lab log entry: "O=c1c(O)cccc2cc(O)c(O)c(O)c12" — outcome as called in the assay?
True

Lab log entry: "O=c1c(O)c(-c2ccccc2)oc2cc(O)ccc12" — outcome as called in the assay?
True

Lab log entry: "O=C1C=CC(=O)c2c(O)c(Cl)c(Cl)c(O)c21" — outcome as called in the assay?
True

Lab log entry: "NC(=NCCCCCCN=C(N)N=C(N)Nc1ccc(Cl)cc1)N=C(N)Nc1ccc(Cl)cc1" — outcome as called in the assay?
True

Lab log entry: "C=CC[C@@H]1/C=C(\C)C[C@H](C)C[C@H](OC)[C@H]2O[C@@](O)(C(=O)C(=O)N3CCCC[C@H]3C(=O)O[C@H](/C(C)=C/[C@@H]3CC[C@@H](O)[C@H](OC)C3)[C@H](C)[C@@H](O)CC1=O)[C@H](C)C[C@@H]2OC" — outcome as called in the assay?
False

* * *

# assayText: chemical genetic growth profiling, strain panel (AID 1159580);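 also: tested at 20 µM; growth read once vehicle control cultures reached saturation at 30 °C; 1 = growth at the plate median or of vehicle wells; lower values mean less growth of the strain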
# details: S. cerevisiae deletion strains, growth OD, locus YAL021C, strain ccr4, hits give low values
Out of some 5,500 compounds screened, about 2,000 (36%) were called active. Roughly 18% stayed inconclusive and do not appear here. The list shows a part of the results.
// assign 1.0 if normalized growth falls strictly below 1, else 0.0 (ties count as 0.0)

Completed entries (count: 4):
{"molecule": "COC(=O)C[C@H]1C(C)(C)[C@@H](OC(C)=O)[C@@H]2CC3=C4CC(=O)O[C@@H](c5ccoc5)[C@]4(C)CCC3[C@@]1(C)C2=O (stereo not given in full)", "group": 0.0}
{"molecule": "O=C(/C=C/c1ccc(O)cc1)c1ccccc1O", "group": 1.0}
{"molecule": "O=C(/C=C/c1ccccc1)c1ccc(O[C@@H]2O[C@H](CO)[C@@H](O)[C@H](O)[C@H]2O)cc1O", "group": 1.0}
{"molecule": "O=C(/C=C/c1ccccc1)c1ccc(O)cc1O", "group": 1.0}

Does the reported normalized growth of the following molecule sit strictly below 1? CC(=O)OC1CCC23CC1(C)CCC2C(C)(C)CC3OC(C)=O (stereo not given)
0.0
